Target: HNF4alpha2 (COS-7 nuclear extract) (Homo sapiens, UniProt P41235 1-474)
Sequence: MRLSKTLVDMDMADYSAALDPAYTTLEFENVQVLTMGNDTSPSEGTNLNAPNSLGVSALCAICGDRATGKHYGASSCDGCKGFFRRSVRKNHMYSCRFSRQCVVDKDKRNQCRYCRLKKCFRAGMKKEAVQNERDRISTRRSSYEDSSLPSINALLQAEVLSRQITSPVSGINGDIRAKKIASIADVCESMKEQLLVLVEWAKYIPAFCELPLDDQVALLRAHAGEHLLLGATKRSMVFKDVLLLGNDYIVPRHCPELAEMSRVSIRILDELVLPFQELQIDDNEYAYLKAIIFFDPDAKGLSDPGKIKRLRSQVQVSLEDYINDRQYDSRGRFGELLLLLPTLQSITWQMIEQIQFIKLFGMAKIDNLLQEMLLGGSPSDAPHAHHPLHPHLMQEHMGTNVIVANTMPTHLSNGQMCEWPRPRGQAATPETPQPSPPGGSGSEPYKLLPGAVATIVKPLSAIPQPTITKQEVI
Assay: protein-binding microarray; COS-7 nuclear extract on double-stranded Agilent 4x180k PBM; binding buffer, salt, pH and temperature not given in the material; high values mean tight binding
Settings: chain copies: 2; label: 3' end of strand 1 on the slide; dsDNA, one strand shown
In all, about 18,000 sequences were measured (“log2 normalized intensity”: median about 0.39, highest 2% from about 6.6 on). The sample as a whole holds a higher share of the highest values than the screen did.
Measured binding signal accompanies every entry in the list below.
Output spec: scalar in log2 normalized intensity, unitless text.

Worked examples follow.
[
  {
    "BIOSEQUENCE": "CCATCCTACAGGGTATGAATTTAACCTTTGGCCTAGGGAGATTAGAGTATCGGTCGA",
    "MEASURED_TARGET": "HNF4alpha2 (COS-7 nuclear extract) (Homo sapiens, UniProt P41235 1-474)",
    "binding signal / log2 normalized intensity": 4.2
  },
  {
    "BIOSEQUENCE": "CTGCCTTAGTCCCAGTATGGTCTCAGTAATGCCTAGGGAGATTAGAGTATCGGTCGA",
    "MEASURED_TARGET": "HNF4alpha2 (COS-7 nuclear extract) (Homo sapiens, UniProt P41235 1-474)",
    "binding signal / log2 normalized intensity": -0.127
  },
  {
    "BIOSEQUENCE": "ATTACATATTAACCTTTGCCCCAGCTGTCAGCCTAGGGAGATTAGAGTATCGGTCGA",
    "MEASURED_TARGET": "HNF4alpha2 (COS-7 nuclear extract) (Homo sapiens, UniProt P41235 1-474)",
    "binding signal / log2 normalized intensity": 5.74
  },
  {
    "BIOSEQUENCE": "CCCAGGTCCAGCCTTTGGGCAGGGGCATCCGCCTAGGGAGATTAGAGTATCGGTCGA",
    "MEASURED_TARGET": "HNF4alpha2 (COS-7 nuclear extract) (Homo sapiens, UniProt P41235 1-474)",
    "binding signal / log2 normalized intensity": -0.72
  }
]

Suppose we examine the sequence AGGTCGCAAGCACTGGCTCTGGGGTCAAAGGCCTAGGGAGATTAGAGTATCGGTCGA ; what binding signal value has been reported? 3.1
